# credit: patent US20200240995

- measured-target: Dual luciferase reporter (DLR) with N(ε)-tert.-butyl-oxycarbonyl-lysine at K529 of the Firefly enzyme
- Sequence (chain, as listed by the source): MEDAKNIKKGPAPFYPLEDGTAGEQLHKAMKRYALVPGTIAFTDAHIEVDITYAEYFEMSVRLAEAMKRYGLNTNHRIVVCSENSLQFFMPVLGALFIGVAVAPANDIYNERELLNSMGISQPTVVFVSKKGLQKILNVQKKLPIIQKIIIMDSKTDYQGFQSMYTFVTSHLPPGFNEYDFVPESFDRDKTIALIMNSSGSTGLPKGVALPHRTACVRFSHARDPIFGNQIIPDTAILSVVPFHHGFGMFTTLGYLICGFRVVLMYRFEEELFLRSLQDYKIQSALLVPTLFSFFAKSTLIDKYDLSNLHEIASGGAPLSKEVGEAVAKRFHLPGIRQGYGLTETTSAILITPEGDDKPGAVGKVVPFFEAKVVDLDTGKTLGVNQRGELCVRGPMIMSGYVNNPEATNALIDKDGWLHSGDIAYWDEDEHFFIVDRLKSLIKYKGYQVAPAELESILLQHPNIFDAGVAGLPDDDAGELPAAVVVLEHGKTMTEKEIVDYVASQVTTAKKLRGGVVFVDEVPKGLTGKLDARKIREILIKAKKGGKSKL
Each entry below carries its recorded DLR activity [rel. to wild-type] (rel. to wild-type).

Use the examples below as a reference point.
protein	meas-value
Decrotonylase-1 (protein) KPRVLVLTGAGISAESGIRTFRAADGLWEEHRVEDVRTPEGFDRDPELVQAFGNATRRQLQQPEIQPNAAHLALAKLQDALGDRFLLVTQNRDNLHERAGNTNVIHMHGELLKVRCSQSGQVLDWTGDVTPEDKCHCCQFPAPLRPHLVWFGEMPLGMDEIYMALSMADIFIAIGTSGHVYPAAGFVHEAKLHGAHTVELNLEPSQVGNEFAEKYYGPASQVVPEFVEKLLKGLKAGSIA	0.04
Dealocase-2 (protein) KPRVLVLTGAGISAESGIRTFRAADGLWEEHRVEDVGTPEGFDRDPELVQAFYNAGRRQLQQPEIQPNAAHLALAKLQDALGDRFLLVTQNVDNLHERAGNTNVIHMHGELLKVRCSQSGQVLDWTGDVTPEDKCHCCQFPAPLRPHVVWFGEMPLGMDEIYMALSMADIFIAIGTSGHVYPAAGFVHEAKLHGAHTVELNLEPSQVGNEFAEKYYGPASQVVPEFVEKLLKGLKAGSIA	0.77
Dealocase-3 (protein) KPRVLVLTGAGISAESGIRTFRAADGLWEEHRVEDVATPEGFDRDPELVQAFYNARRRQLQQPEIQPNAAHLALAKLQDALGDRFLLVTQNSDNLHERAGNTNVIHMHGELLKVRCSQSGQVLDWTGDVTPEDKCHCCQFPAPLRPHLVWFGEMPLGMDEIYMALSMADIFIAIGTSGHVYPAAGFVHEAKLHGAHTVELNLEPSQVGNEFAEKYYGPASQVVPEFVEKLLKGLKAGSIA	0.65

Now for a further protein.
Ask: Given Debocylase-1 (protein) KPRVLVLTGAGISAESGIRTFRAADGLWEEHRVEDVATPEGFDRDPELVQAFYNARRRQLQQPEIQPNAAHLALAKLQDALGDRFLLVTQNVDNLHERAGNTNVIHMHGELLKVRCSQSGQVLDWTGDVTPEDKCHCCQFPAPLRPHLVWFGEMPLGMDEIYMALSMADIFIAIGTSGHVYPAAGFVHEAKLHGAHTVELNLEPSQVGNEFAEKYYGPASQVVPEFVEKLLKGLKAGSIA , state its recorded DLR activity [rel. to wild-type] (rel. to wild-type).
Result: 8.65
